Values from ChEMBL document CHEMBL1159154

Experiment: Partition coefficient in n-octanol/phosphate buffer, at pH 7.4
Type: physicochemical
PARAMETER MEASURED: logD

Sample records with logD:
# MOLECULE SMILES, PARAMETER MEASURED, QUANTITATIVE RESULT
data = [
    ("CCc1cc(C(C)=O)c(O)cc1OCc1cncc(C(=O)Nc2nc(CC(=O)O)cs2)n1", "logD", 0.6),
    ("CCc1cc(C(C)=O)c(O)cc1OCc1cccc(C(=O)Nc2cccc(CC(=O)O)[n+]2[O-])n1", "logD", 0.8),
    ("CCc1cc(C(C)=O)c(O)cc1OCc1cccc(C(=O)N[C@@H](CO)C(=O)O)n1", "logD", -0.3),
    ("CCc1cc(C(C)=O)c(O)cc1OCc1cccc(C(=O)NCCC(=O)O)n1", "logD", 0.7),
    ("CCc1cc(C(C)=O)c(O)cc1OCc1cccc(C(=O)N[C@@H](CC(=O)O)C(=O)O)n1", "logD", -1.8),
    ("CCc1cc(C(C)=O)c(O)cc1OCc1cccc(C(=O)Nc2cccc(CC(=O)O)n2)n1", "logD", 1.1),
]

1: CCc1cc(C(C)=O)c(O)cc1OCc1cccc(C(=O)Nc2nc(CC(=O)O)cs2)n1
2: CCc1cc(C(C)=O)c(O)cc1OCc1cccc(C(=O)N(CC)CCC(=O)O)n1
3: CCc1cc(C(C)=O)c(O)cc1OCc1cccc(C(=O)N(CC)CCO)n1
Arrange these 3 compounds in increasing order of logD. In your reply, arrange the labels in the requested order.
2, 1, 3
